# System: XBP1(u)-luciferase splicing reporter in HepG2 hepatoma cells
# Assay Remarks: HepG2 XBP1 reporter assay (XBP1(u)-Luc)
# Format: cell-based
# Conditions Used: Homo sapiens, 6 h, six hours after addition of compound
pIC50: −log10 of the molar value.
Endpoint Label: pIC50

# Compound, Tested System, Endpoint Label, Result
records = [
    ("Cc1cc(N2CCCOC[C@@H]2c2ccc(CS(C)(=O)=O)cc2OC(F)F)nc(N)n1", "XBP1(u)-luciferase splicing reporter in HepG2 hepatoma cells", "pIC50", "> 6.22"),
    ("COc1ccc(C2COCCCN2c2cc(C)nc(N)n2)c(Cl)c1 (centres unmarked)", "XBP1(u)-luciferase splicing reporter in HepG2 hepatoma cells", "pIC50", "> 6.22"),
    ("Cc1cc(N2CCCOC[C@H]2c2cc(N)c(C(F)(F)F)cc2Cl)nc(N)n1", "XBP1(u)-luciferase splicing reporter in HepG2 hepatoma cells", "pIC50", "≤ 5.30"),
    ("CCOc1cc([C@@H]2COCCCN2c2cc(C)nc(N)n2)c(Cl)cc1OC", "XBP1(u)-luciferase splicing reporter in HepG2 hepatoma cells", "pIC50", "≤ 5.30"),
    ("CCOc1cc([C@H]2COCCCN2c2cc(C)nc(N)n2)c(Cl)cc1OCC(N)=O", "XBP1(u)-luciferase splicing reporter in HepG2 hepatoma cells", "pIC50", "> 6.22"),
]
